- Assayed system: Adenosine receptor (Rattus norvegicus, UniProt P29276+P25099+P30543+P28647)
- Test protocol: Ability to inhibit the binding of [3H]N6-phenylisopropyl adenosine to adenosine receptor in rat cerebral cortex membranes
- Format: cell membranes, Membrane
Where a SMILES comes first, the peptide text is derived from it. The star is where a group is joined. X2 = O=C(Cc1ccc(Nc2ncnc3c2ncn3[C@@H]2O[C@H](CO)[C@@H](O)[C@H]2O)cc1)*
Result type: Ki (nM)
Please reply with the bare figure in nM and do not write the unit itself.

// recorded Ki for O=C(O)Cc1ccc(Nc2ncnc3c2ncn3C2O[C@H](CO)[C@@H](O)[C@H]2O)cc1 (stereo partly drawn) : 210

// recorded Ki for CCCN1C(=O)C2NC(c3ccc(OCC(=O)NCCNC(=O)CN)cc3)=NC2N(CCC)C1=O (stereo not drawn) : 2.1

// recorded Ki for CSCC[C@H](NC(=O)[C@H](CC(C)C)NC(=O)CNC(=O)[C@H](Cc1ccccc1)NC(=O)[C@H](Cc1ccccc1)NC(=O)Cc1ccc(Nc2ncnc3c2ncn3[C@@H]2O[C@H](CO)[C@@H](O)[C@H]2O)cc1)C(N)=O (X2-FFGLM-NH2) : 16

---

For each entry below, report its Ki value.
- Assayed system: Substance-P receptor (Rattus norvegicus, UniProt P14600)
- Sequence (P14600 whole entry): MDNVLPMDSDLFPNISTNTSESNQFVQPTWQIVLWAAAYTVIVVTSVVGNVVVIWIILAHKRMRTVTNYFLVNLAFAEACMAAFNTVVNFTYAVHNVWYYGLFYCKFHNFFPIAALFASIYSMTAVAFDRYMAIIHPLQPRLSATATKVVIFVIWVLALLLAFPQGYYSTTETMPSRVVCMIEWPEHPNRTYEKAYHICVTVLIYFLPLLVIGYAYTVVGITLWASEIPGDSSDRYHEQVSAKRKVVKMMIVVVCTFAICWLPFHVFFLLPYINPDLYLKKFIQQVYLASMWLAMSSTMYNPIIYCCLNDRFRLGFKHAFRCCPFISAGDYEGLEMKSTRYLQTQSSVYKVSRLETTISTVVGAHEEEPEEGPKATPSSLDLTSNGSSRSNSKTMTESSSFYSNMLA
- Test protocol: Ability to inhibit the binding of [125I]physalaemin to the SP receptors in rat telencephalon slices
Please reply with the bare figure in nM and do not write the unit itself.

// returns Ki for H-QFFGLM-NH2 with Substance-P receptor (Rattus norvegicus, UniProt P14600); value = 450

// returns Ki for H-QQFFGLM-NH2 with Substance-P receptor (Rattus norvegicus, UniProt P14600); value = 180

---

Where a SMILES comes first, the peptide text is derived from it. The star is where a group is joined. X1 = CCCN1C(=O)C2NC(c3ccc(OCC(=O)NCCNC(=O)C(N)CC(=O)*)cc3)=NC2N(CCC)C1=O; X2 = O=C(Cc1ccc(Nc2ncnc3c2ncn3[C@@H]2O[C@H](CO)[C@@H](O)[C@H]2O)cc1)*
Result type: pKi
Keep in mind that pKi stands for -log10 of concentration in molar terms.

// returns pKi for CCCN1C(=O)C2NC(c3ccc(OCC(=O)NCCNC(=O)C(N)CC(=O)N[C@@H](Cc4ccccc4)C(=O)N[C@@H](Cc4ccccc4)C(=O)NCC(=O)N[C@@H](CC(C)C)C(=O)N[C@@H](CCSC)C(N)=O)cc3)=NC2N(CCC)C1=O (stereo not given in full) (X1-FFGLM-NH2) with Substance-P receptor (Rattus norvegicus); value = 6.52

// returns pKi for CSCC[C@H](NC(=O)[C@H](CC(C)C)NC(=O)CNC(=O)[C@H](Cc1ccccc1)NC(=O)[C@H](Cc1ccccc1)NC(=O)Cc1ccc(Nc2ncnc3c2ncn3[C@@H]2O[C@H](CO)[C@@H](O)[C@H]2O)cc1)C(N)=O (X2-FFGLM-NH2) with Substance-P receptor (Rattus norvegicus); value = 5.70

---

For each entry below, report its Ki value.
- Assayed system: Adenosine receptor (Rattus norvegicus, UniProt P29276+P25099+P30543+P28647)
- Test protocol: Ability to inhibit the binding of [3H]N6-phenylisopropyl adenosine to adenosine receptor in rat cerebral cortex membranes
- Assay type: cell membranes, Membrane
Where a SMILES comes first, the peptide text is derived from it. The star is where a group is joined. X1 = CCCN1C(=O)C2NC(c3ccc(OCC(=O)NCCNC(=O)C(N)CC(=O)*)cc3)=NC2N(CCC)C1=O
Please reply with the bare figure in µM and do not write the unit itself.

// returns Ki for CCCN1C(=O)C2NC(c3ccc(OCC(=O)NCCNC(=O)C(N)CC(=O)N[C@@H](Cc4ccccc4)C(=O)N[C@@H](Cc4ccccc4)C(=O)NCC(N)=O)cc3)=NC2N(CCC)C1=O (stereo partly drawn) with Adenosine receptor (Rattus norvegicus, UniProt P29276+P25099+P30543+P28647); value = 0.03

// returns Ki for CCCN1C(=O)C2NC(c3ccc(OCC(=O)NCCNC(=O)C(N)CC(=O)N[C@@H](Cc4ccccc4)C(=O)N[C@@H](Cc4ccccc4)C(=O)NCC(=O)N[C@@H](CC(C)C)C(=O)N[C@@H](CCSC)C(N)=O)cc3)=NC2N(CCC)C1=O (stereo partly drawn) (X1-FFGLM-NH2) with Adenosine receptor (Rattus norvegicus, UniProt P29276+P25099+P30543+P28647); value = 0.035
